Test: Half life in dog
Assay type: ADME, organism-based, Canis lupus familiaris
Conditions: in vivo
recorded-endpoint: half-life (min)
One number for each entry, in min.

Briefly, half-life measured for Cc1noc(NC(=O)N2CCC3(CC2)CC(c2ccc(F)c(Cl)c2)C3)c1C : 468

====

Assay: Half life in rat CFA model at 3 mg/kg, po
Assay type: ADME, organism-based
Set-up: dose 3 mg/kg, route oral
Conditions: in vivo
recorded-endpoint: half-life (h)
One number for each entry, in h.

Briefly, half-life measured for Cc1noc(NC(=O)N2CCC3(CC2)CC(c2ccc(F)c(Cl)c2)C3)c1C : 7.1

====

Assay: Oral bioavailability in rat CFA model at 3 mg/kg
Assay type: ADME, organism-based
Conditions: in vivo
recorded-endpoint: bioavailability (%)
Answers are plain numbers, in %.

Briefly, bioavailability measured for Cc1noc(NC(=O)N2CCC3(CC2)CC(c2ccc(F)c(Cl)c2)C3)c1C : 53

Reference for the values: ChEMBL document CHEMBL1914324
